# experimental_target: hERG K+ channel (Homo sapiens)
# experimental_details: hERG channel inhibition assay (patch-clamp, CHO-hERG cells)
# test_parameters: CHO-hERG cells, whole-cell patch-clamp
# Description: The hERG K^+ channels were cloned in humans and stably expressed in a CHO (Chinese hamster ovary) cell line. CHOhERG cells were used for patch-clamp (voltage-clamp, whole-cell) experiments. […] After the cells were stabilized for a few minutes, the amplitude and kinetics of IKhERG were recorded at a stimulation frequency of 0.1 Hz (6 bpm). […] The amplitude and kinetics of IKhERG are recorded in each concentration of the drug which were compared to the control values (taken as 100%). […]
Catalogue of compounds with associated IC50

| compound | IC50 |
| --- | --- |
| Cc1cc(N2CCNCC2)ncc1C1CCN(c2ccnc3c2cnn3C)CC1 | > 10 µM |
| Cc1cc(N2CCC(c3ccc(N4CCNCC4)cn3)CC2)c2cnn(C)c2n1 | > 20 µM |
| COC[C@H]1CN(c2cnc([C@@H]3CCN(c4cc(C)nc5c4cnn5C)C[C@H]3C)c(C)c2)CCN1 | > 10 µM |
| CO[C@@H]1CN(c2cnc([C@@H]3CCN(c4cc(C)nc5c4cnn5C)C[C@H]3C)c(C)c2)C[C@H]1N | > 20 µM |
| CO[C@@H]1CN(c2ccc([C@H]3CCN(c4cc(C)nc5c4cnn5C)C[C@@H]3C)nc2)C[C@H]1N | > 20 µM |
| Cc1cc(N2CCC(c3ncc(N4CCNCC4)cc3C)CC2)c2cnn(C)c2n1 | > 20 µM |
| Cc1cc(N2CCC(c3ncc(N4CCNCC4)cc3C)[C@H](C)C2)c2cnn(C)c2n1 (single isomer, unassigned) | > 20 µM |
| Cc1cc(N2CCC(c3ncc(N4CCNCC4)nc3C)CC2)c2cnn(C)c2n1 | > 20 µM |
| Cc1cc(N2CC[C@@H](c3ncc(N4C[C@H]5NCCO[C@@H]5C4)cc3C)[C@H](C)C2)c2cnn(C)c2n1 | > 10 µM |
| Cc1cc(N2CCC(c3cnc(N4CCNCC4)nc3C)CC2)c2cnn(C)c2n1 | > 20 µM |

# lookup: IC50 of Cc1cc(N2CC[C@H](c3ccc(N4CC(C)(N)C4)cn3)[C@@H](C)C2)c2cnn(C)c2n1
> 20 µM

May I ask what IC50 has been recorded for COC[C@H]1CN(c2ccc([C@H]3CCN(c4cc(C)nc5c4cnn5C)C[C@@H]3C)nc2)CCN1 ?
> 20 µM

Data request, read-out IC50, for Cc1cc(N2CC[C@H](c3ccc(N4CCOC[C@@H](N)C4)cn3)[C@@H](C)C2)c2cnn(C)c2n1
> 20 µM

Form field: reported IC50 of Cc1cc(N2CC[C@@H](c3ncc(N4CCNC5(CC5)C4)cc3C)[C@H](C)C2)c2cnn(C)c2n1
> 10 µM

Entry under review: Cc1cc(N2CC[C@H](c3ccc(N4CCNCC4)cn3)[C@@H](C)C2)c2cnn(C)c2n1 . Reported IC50?
> 10 µM

----------
Below is a list of entries, each paired with its recorded Clearance of Human microsome value.
# experimental_details: Human microsome stability assay
# Type: in vitro ADME
# test_parameters: 1 μM test compound, 0.5 mg/mL liver microsomal protein, 37° C.
Answer in mL/min/kg, number only, no unit symbol.

Solved cases below.
| compound | reported_property | result_units | experimental_result |
| --- | --- | --- | --- |
| COC[C@H]1CN(c2ccc([C@H]3CCN(c4cc(C)nc5c4cnn5C)C[C@@H]3C)nc2)CCN1 [Example 37] | Clearance of Human microsome | mL/min/kg | 6.2 |
| COc1cc(N2CCNCC2)cnc1C1CCN(c2cc(C)nc3c2cnn3C)CC1 [Example 14] | Clearance of Human microsome | mL/min/kg | 6.7 |
| Cc1cc(N2CCC(c3ncc(N4CCNCC4)nc3C)CC2)c2cnn(C)c2n1 [Example 12] | Clearance of Human microsome | mL/min/kg | 9.7 |
| Cc1cc(N2CCC(c3ncc(N4CCNCC4)cc3C)CC2)c2cnn(C)c2n1 [Example 7] | Clearance of Human microsome | mL/min/kg | 6.2 |
| Cc1cc(N2CCC(c3cnc(N4CCNCC4)cc3C)[C@H](C)C2)c2cnn(C)c2n1 (single isomer, unassigned) [Example 20] | Clearance of Human microsome | mL/min/kg | 9.0 |

# Clearance of Human microsome lookup, item Cc1cc(N2CC[C@H](c3ccc(N4CC(C)(N)C4)cn3)[C@@H](C)C2)c2cnn(C)c2n1 [Example 43]
6.5

Item under review: CCc1cc(N2CCNCC2)cnc1C1CCN(c2cc(C)nc3c2cnn3C)CC1 [Example 13] . Reported Clearance of Human microsome?
7.2

// lookup Clearance of Human microsome for Cc1cc(N2CC[C@@H](c3ncc(N4CC5(CNCCO5)C4)cc3C)[C@H](C)C2)c2cnn(C)c2n1 [Example 27]
9.1

----------
Form field: hERG IC20/TLR7 IC50 (one value per entry).
# experimental_target: hERG K+ channel (Homo sapiens)
# Construct: expressed in transfected cells; host or cells: CHO (Chinese hamster ovary)
# experimental_details: hERG channel inhibition assay (patch-clamp, CHO-hERG cells)
# Format: cell-based
# test_parameters: safety ratio
# Method: The hERG K^+ channels were cloned in humans and stably expressed in a CHO (Chinese hamster ovary) cell line. CHOhERG cells were used for patch-clamp (voltage-clamp, whole-cell) experiments. […] After the cells were stabilized for a few minutes, the amplitude and kinetics of IKhERG were recorded at a stimulation frequency of 0.1 Hz (6 bpm). […] The amplitude and kinetics of IKhERG are recorded in each concentration of the drug which were compared to the control values (taken as 100%). […]
Please reply with the number alone, leaving off any unit.

| compound | hERG IC20/TLR7 IC50 |
| --- | --- |
| Cc1cc(N2CCC(c3cnc(N4CCNCC4)nc3C)CC2)c2cnn(C)c2n1 [Example 11] | 202.7 |
| Cc1cc(N2CCNCC2)ncc1C1CCN(c2ccnc3c2cnn3C)CC1 [Example 6] | 628.6 |

Query: hERG IC20/TLR7 IC50; subject: Cc1cc(N2CCC(c3ncc(N4CCNCC4)cc3C)CC2)c2cnn(C)c2n1 [Example 7]
463.6

Item under review: Cc1cc(N2CCC(c3ccc(N4CCNCC4)cc3)CC2)c2cnn(C)c2n1 [Example 1] . Reported hERG IC20/TLR7 IC50?
75.5

----------
# experimental_details: Single dose pharmacokinetics (PK) study in male Wister-Han rats
# Assay type: in vivo
# test_parameters: rat, dose normalized AUC0-last after IV and PO dose
reported_property: F (%)
Give the number; % is assumed, so skip it.

Examples from the recorded data:
| compound | F (%) |
| --- | --- |
| Cc1cc(N2CC[C@@H](c3ncc(N4CCOC[C@@H](N)C4)cc3C)[C@H](C)C2)c2cnn(C)c2n1 [Example 28] | 37 |
| Cc1cc(N2CC[C@H](c3ccc(N4CCOC[C@@H](N)C4)cn3)[C@@H](C)C2)c2cnn(C)c2n1 [Example 40] | 53.4 |
| CO[C@@H]1CN(c2cnc([C@@H]3CCN(c4cc(C)nc5c4cnn5C)C[C@H]3C)c(C)c2)C[C@H]1N [Example 26] | 84.3 |

With those in mind, consider the next compound.
Can you look up the measured F of Cc1cc(N2CCC(c3ncc(N4CCNCC4)cc3C)CC2)c2cnn(C)c2n1 [Example 7] for me?
100

----------
# experimental_target: hERG K+ channel (Homo sapiens, UniProt Q12809)
# Construct: expressed in transfected cells; host or cells: CHO (Chinese hamster ovary)
# Sequence (Q12809 whole entry): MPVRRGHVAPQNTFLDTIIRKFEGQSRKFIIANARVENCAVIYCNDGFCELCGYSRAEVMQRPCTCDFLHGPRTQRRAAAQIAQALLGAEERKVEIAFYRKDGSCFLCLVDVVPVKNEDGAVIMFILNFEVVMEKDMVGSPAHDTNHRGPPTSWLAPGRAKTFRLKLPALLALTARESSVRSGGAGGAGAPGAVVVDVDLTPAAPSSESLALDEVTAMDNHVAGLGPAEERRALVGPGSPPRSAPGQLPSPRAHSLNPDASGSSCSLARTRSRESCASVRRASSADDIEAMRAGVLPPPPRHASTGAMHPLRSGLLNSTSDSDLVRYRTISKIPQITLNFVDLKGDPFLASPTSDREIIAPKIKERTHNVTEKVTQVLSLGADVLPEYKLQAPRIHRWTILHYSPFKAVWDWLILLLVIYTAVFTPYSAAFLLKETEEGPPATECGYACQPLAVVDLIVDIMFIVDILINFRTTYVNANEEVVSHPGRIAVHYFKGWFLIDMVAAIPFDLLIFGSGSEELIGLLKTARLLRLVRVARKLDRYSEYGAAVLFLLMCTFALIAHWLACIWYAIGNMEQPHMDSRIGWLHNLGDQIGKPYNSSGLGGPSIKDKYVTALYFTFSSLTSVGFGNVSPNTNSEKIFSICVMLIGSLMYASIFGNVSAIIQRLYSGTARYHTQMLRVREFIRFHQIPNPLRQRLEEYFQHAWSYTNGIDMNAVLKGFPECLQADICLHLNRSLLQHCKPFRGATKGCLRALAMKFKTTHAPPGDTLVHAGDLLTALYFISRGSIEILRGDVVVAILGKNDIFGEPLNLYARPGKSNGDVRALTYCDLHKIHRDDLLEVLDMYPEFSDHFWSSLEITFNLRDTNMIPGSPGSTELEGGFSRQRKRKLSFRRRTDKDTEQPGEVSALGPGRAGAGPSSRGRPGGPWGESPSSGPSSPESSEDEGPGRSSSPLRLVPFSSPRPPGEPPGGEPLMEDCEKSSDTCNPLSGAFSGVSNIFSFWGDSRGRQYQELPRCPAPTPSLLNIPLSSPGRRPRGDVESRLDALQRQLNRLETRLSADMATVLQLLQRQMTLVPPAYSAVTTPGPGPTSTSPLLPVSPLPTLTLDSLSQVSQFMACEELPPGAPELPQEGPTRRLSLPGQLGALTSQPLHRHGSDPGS
# experimental_details: hERG channel inhibition assay (patch-clamp, CHO-hERG cells)
# Type: cell-based
# test_parameters: human, CHO cells stably expressing hERG; CHO-hERG cells, whole-cell patch-clamp
IC20 for assorted compounds
Express your answer in µM, writing the number without its unit.

As a guide, the following entries are already answered.
| chemical_structure | experimental_target | result_units | experimental_result |
| --- | --- | --- | --- |
| Cc1cc(N2CCC(c3cnc(N4CCNCC4)nc3C)CC2)c2cnn(C)c2n1 | hERG K+ channel (Homo sapiens, UniProt Q12809) | µM | 7.5 |
| Cc1cc(N2CC[C@H](c3ccc(N4CCNCC4)cn3)[C@@H](C)C2)c2cnn(C)c2n1 | hERG K+ channel (Homo sapiens, UniProt Q12809) | µM | 4.4 |
| Cc1cc(N2CC[C@@H](c3ncc(N4CCNC5(CC5)C4)cc3C)[C@H](C)C2)c2cnn(C)c2n1 | hERG K+ channel (Homo sapiens, UniProt Q12809) | µM | 4.9 |
| Cc1cc(N2CC[C@H](c3ccc(N4CC5(CNCCO5)C4)cn3)[C@@H](C)C2)c2cnn(C)c2n1 | hERG K+ channel (Homo sapiens, UniProt Q12809) | µM | 5.2 |
| Cc1cc(N2CCNCC2)ncc1C1CCN(c2ccnc3c2cnn3C)CC1 | hERG K+ channel (Homo sapiens, UniProt Q12809) | µM | 4.4 |

Given the entry Cc1cc(N2CC[C@@H](c3ncc(N4CCOC[C@@H](N)C4)cc3C)[C@H](C)C2)c2cnn(C)c2n1 , report its measured IC20.
6.4

IC20 for Cc1cc(N2CC[C@H](c3ccc(N4CCOC[C@@H](N)C4)cn3)[C@@H](C)C2)c2cnn(C)c2n1 ?
5.9

Which IC20 is listed for COC[C@H]1CN(c2cnc([C@@H]3CCN(c4cc(C)nc5c4cnn5C)C[C@H]3C)c(C)c2)CCN1 ?
4.4

Suppose we examine the compound Cc1cc(N2CCC(c3ncc(N4CCNCC4)nc3C)CC2)c2cnn(C)c2n1 ; what IC20 value has been reported?
7

Recorded IC20 of Cc1cc(N2CC[C@@H](c3ncc(N4C[C@H]5NCCO[C@@H]5C4)cc3C)[C@H](C)C2)c2cnn(C)c2n1 , please.
4.1

// returns reported IC20 for input Cc1cc(N2CC[C@@H](c3ncc(N4CC(C)(N)C4)cc3C)[C@H](C)C2)c2cnn(C)c2n1
4.4

Requested read-out: IC20. Entry: Cc1cc(N2CCC(c3ncc(N4CCNCC4)cc3C)CC2)c2cnn(C)c2n1
5.1
